molecular target: CYP 2D6 (Homo sapiens); construct: host or cells: baculovirus-infected insect cells (supersomes); assay: Cytochrome P450 testing, CYP 2D6; format: in vitro ADME; conditions: dextromethorphan O-demethylation; read-out: Concentration of inhibition (IC50), CYP 2D6
Sequence (P10635 whole entry): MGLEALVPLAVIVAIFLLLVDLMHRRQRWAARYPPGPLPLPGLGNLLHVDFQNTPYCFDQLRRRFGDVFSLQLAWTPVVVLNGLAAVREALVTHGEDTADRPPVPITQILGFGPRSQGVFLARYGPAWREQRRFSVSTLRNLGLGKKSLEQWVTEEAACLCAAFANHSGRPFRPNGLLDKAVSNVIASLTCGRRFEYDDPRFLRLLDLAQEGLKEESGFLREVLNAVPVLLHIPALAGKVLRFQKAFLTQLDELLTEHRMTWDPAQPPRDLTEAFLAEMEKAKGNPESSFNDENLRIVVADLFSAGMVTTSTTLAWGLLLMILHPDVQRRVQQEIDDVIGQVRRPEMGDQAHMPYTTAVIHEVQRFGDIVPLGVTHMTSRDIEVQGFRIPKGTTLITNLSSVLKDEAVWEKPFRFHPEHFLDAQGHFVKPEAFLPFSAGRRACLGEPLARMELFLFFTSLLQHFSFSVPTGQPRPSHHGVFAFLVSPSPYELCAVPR
pIC50: −log10 of the molar value.
measured-parameter: pIC50

Input line: // lookup pIC50 for O=P(O)(O)CCN1CCC(Nc2cc(N3CCOCC3)nc(NCc3cn(CCCO)nn3)n2)CC1 [CN016]
Output line: < 4.00

###

experiment: Pharmacokinetics after intravenous injection; assay type: in vivo; details: male, mouse, plasma; 5 mg/kg IV, ICR mice, mean ± SD (n = 3)
measured-parameter: AUC(0-t) at 24 h (µg·h/mL)
Give the number; µg·h/mL is assumed, so skip it.

Input line: // lookup AUC(0-t) at 24 h for O=P(O)(O)CCN1CCC(Nc2cc(N3CCOCC3)nc(NCc3cn(CCCO)nn3)n2)CC1 [CN016]
Output line: 6.99

###

tested on: primary cortical neurons; experiment: Synaptogenesis assay of primary cortical neurons (image-based HCS) against paclitaxel-induced neurotoxicity; type: cell-based, mouse; details: Mus musculus, Primary cortical neuron; test compound 10 nM + paclitaxel 1 μM; mean ± SE; read-out: A: Synaptogenesis (% of control) of test compound (10 nM) + paclitaxel (1 μM)
measured-parameter: activity at 0.01 µM (%)
Give the number; % is assumed, so skip it.

Input line: Please provide the recorded activity at 0.01 µM for `CC(C)(C)c1ccc(C(=O)NNc2cc(N3CCCCC3)nc(N3CCCCC3)n2)cc1` , tested on primary cortical neurons.
Output line: 51

Input line: Please provide the recorded activity at 0.01 µM for `O=[N+]([O-])c1cccc(/C=N/Nc2cc(N3CCOCC3)nc(N3CCOCC3)n2)c1` , tested on primary cortical neurons.
Output line: 92

Input line: Please provide the recorded activity at 0.01 µM for `Oc1ccc(Br)cc1/C=N/Nc1cc(N2CCOCC2)nc(N2CCOCC2)n1` , tested on primary cortical neurons.
Output line: 26

More entries:
Input line: Please provide the recorded activity at 0.01 µM for `CCN(CC)c1cc(N/N=C/c2ccncc2)nc(N(CC)CC)n1` , tested on primary cortical neurons.
Output line: 35

Input line: Please provide the recorded activity at 0.01 µM for `CCN(CC)c1ccc(/C=N/Nc2cc(N3CCOCC3)nc(N3CCOCC3)n2)cc1` , tested on primary cortical neurons.
Output line: 67

Input line: Please provide the recorded activity at 0.01 µM for `COc1ccc(/C=N/Nc2cc(N3CCCC3)nc(N3CCCC3)n2)cc1` , tested on primary cortical neurons.
Output line: 98

Input line: Please provide the recorded activity at 0.01 µM for `CCN(CC)c1cc(NNC(=O)CCc2ccccc2)nc(N(CC)CC)n1` , tested on primary cortical neurons.
Output line: 38

Input line: Please provide the recorded activity at 0.01 µM for `CCN(CC)c1cc(N/N=C/c2ccccc2O)nc(N(CC)CC)n1` , tested on primary cortical neurons.
Output line: 30

Input line: Please provide the recorded activity at 0.01 µM for `O=C(NNc1cc(N2CCOCC2)nc(N2CCOCC2)n1)c1ccccc1` , tested on primary cortical neurons.
Output line: 86

Input line: Please provide the recorded activity at 0.01 µM for `Oc1cccc(/C=N/Nc2cc(N3CCCCC3)nc(N3CCCCC3)n2)c1` , tested on primary cortical neurons.
Output line: 43

Input line: Please provide the recorded activity at 0.01 µM for `CCCN(CCC)c1cc(N/N=C/c2ccccc2OC)nc(N(CCC)CCC)n1` , tested on primary cortical neurons.
Output line: 33

Input line: Please provide the recorded activity at 0.01 µM for `CN(C)c1cc(NNC(=O)c2ccc(C(C)(C)C)cc2)nc(N(C)C)n1` , tested on primary cortical neurons.
Output line: 35

Input line: Please provide the recorded activity at 0.01 µM for `CCN(CC)c1cc(N/N=C/c2ccccc2OC)nc(N(CC)CC)n1` , tested on primary cortical neurons.
Output line: 39

Input line: Please provide the recorded activity at 0.01 µM for `O=[N+]([O-])c1ccc(/C=N/Nc2cc(N3CCCCCC3)nc(N3CCCCCC3)n2)cc1` , tested on primary cortical neurons.
Output line: 60

Input line: Please provide the recorded activity at 0.01 µM for `O=[N+]([O-])c1ccc(/C=N/Nc2cc(N3CCCC3)nc(N3CCCC3)n2)cc1` , tested on primary cortical neurons.
Output line: 55

Input line: Please provide the recorded activity at 0.01 µM for `COc1cc(/C=N/Nc2cc(N3CCOCC3)nc(N3CCOCC3)n2)ccc1O` , tested on primary cortical neurons.
Output line: 38

Input line: Please provide the recorded activity at 0.01 µM for `CCN(CC)c1cc(N/N=C/c2cccc(O)c2)nc(N(CC)CC)n1` , tested on primary cortical neurons.
Output line: 38

Input line: Please provide the recorded activity at 0.01 µM for `Cc1ccc(S)c(Nc2cc(N)nc(N)n2)n1` , tested on primary cortical neurons.
Output line: 63

Input line: Please provide the recorded activity at 0.01 µM for `Oc1cccc(/C=N/Nc2cc(N3CCCC3)nc(N3CCCC3)n2)c1` , tested on primary cortical neurons.
Output line: 24

Input line: Please provide the recorded activity at 0.01 µM for `Clc1ccc(/C=N/Nc2cc(N3CCOCC3)nc(N3CCOCC3)n2)cc1` , tested on primary cortical neurons.
Output line: 27

Input line: Please provide the recorded activity at 0.01 µM for `COc1cc(/C=N/Nc2cc(N3CCCC3)nc(N3CCCC3)n2)ccc1O` , tested on primary cortical neurons.
Output line: 43

Input line: Please provide the recorded activity at 0.01 µM for `CCN(CC)c1cc(N/N=C/c2ccc(Cl)cc2)nc(N(CC)CC)n1` , tested on primary cortical neurons.
Output line: 43

###

tested on: primary cortical neurons; experiment: Neurite outgrowth assay of primary cortical neurons (image-based HCS) against paclitaxel-induced neurotoxicity; assay type: cell-based, mouse; conditions: Mus musculus, Primary cortical neuron; test compound 1000 nM + paclitaxel 1 μM; mean ± SE; read-out: D: Neurite outgrowth (% of control) of test compound (1000 nM) + paclitaxel (1 μM)
measured-parameter: activity at 1 µM (%)
Give the number; % is assumed, so skip it.

Input line: // lookup activity at 1 µM for Clc1ccc(/C=N/Nc2cc(N3CCCC3)nc(N3CCCC3)n2)cc1 [CSV0A024814]
Output line: 67

Input line: // lookup activity at 1 µM for COc1cc(/C=N/Nc2cc(N3CCCCC3)nc(N3CCCCC3)n2)ccc1O [CSV0B006088]
Output line: 66

Input line: // lookup activity at 1 µM for CCN(CC)c1cc(N/N=C/c2ccccc2OC)nc(N(CC)CC)n1 [CSV0A007655]
Output line: 51

Input line: // lookup activity at 1 µM for CCN(CC)c1cc(N/N=C/c2ccncc2)nc(N(CC)CC)n1 [CSV0A029945]
Output line: 75

Input line: // lookup activity at 1 µM for CCN(CC)c1cc(NNC(=O)c2ccc(C(C)(C)C)cc2)nc(N(CC)CC)n1 [CSV0B008884]
Output line: 41

More entries:
Input line: // lookup activity at 1 µM for C(=N\Nc1cc(N2CCOCC2)nc(N2CCOCC2)n1)/c1ccncc1 [CSV0A024809]
Output line: 82

Input line: // lookup activity at 1 µM for CCN(CC)c1cc(N/N=C/c2ccc(O)c(OC)c2)nc(N(CC)CC)n1 [CSV0B009489]
Output line: 41

Input line: // lookup activity at 1 µM for COc1ccccc1/C=N/Nc1cc(N2CCCCC2)nc(N2CCCCC2)n1 [CSV0A061666]
Output line: 89

Input line: // lookup activity at 1 µM for O=C(NNc1cc(N2CCOCC2)nc(N2CCOCC2)n1)c1ccccc1 [CSV0A051549]
Output line: 68

###

system: primary cortical neurons; assay: Neurite outgrowth assay of primary cortical neurons (image-based HCS) against paclitaxel-induced neurotoxicity; type: cell-based, mouse; details: Mus musculus, Primary cortical neuron; test compound 10 nM + paclitaxel 1 μM; mean ± SE; read-out: C: Neurite outgrowth (% of control) of test compound (10 nM) + paclitaxel (1 μM)
Label true when activity at 0.01 µM is strictly below 80%; otherwise label false.

Input line: Strictly below 80% in activity at 0.01 µM? `COc1ccccc1/C=N/Nc1cc(N2CCOCC2)nc(N2CCOCC2)n1`
Output line: true

Input line: Strictly below 80% in activity at 0.01 µM? `CN(C)c1ccc(/C=N/Nc2cc(N3CCOCC3)nc(N3CCOCC3)n2)cc1`
Output line: false

Input line: Strictly below 80% in activity at 0.01 µM? `O=[N+]([O-])c1ccc(/C=N/Nc2cc(N3CCCCCC3)nc(N3CCCCCC3)n2)cc1`
Output line: true

Input line: Strictly below 80% in activity at 0.01 µM? `CN(C)c1cc(N/N=C/c2ccc(Cl)cc2)nc(N(C)C)n1`
Output line: true

Input line: Strictly below 80% in activity at 0.01 µM? `CCN(CC)c1cc(N/N=C/c2ccc(Cl)cc2)nc(N(CC)CC)n1`
Output line: true

Input line: Strictly below 80% in activity at 0.01 µM? `CCN(CC)c1cc(NNC(=O)CCc2ccccc2)nc(N(CC)CC)n1`
Output line: true

Input line: Strictly below 80% in activity at 0.01 µM? `CCN(CC)c1cc(N/N=C/c2ccncc2)nc(N(CC)CC)n1`
Output line: true
